meta.source: PubChem BioAssay AID2330

assay: NOMO-1 AML cell viability reduction, primary screen, STK33 inhibitor project, CellTiter-Glo luminescence (AID 2330); conditions: NOMO-1 AML viability, 72 h, concentration not given here
Out of some 37,000 compounds screened, about 2,800 (7.6%) were called active. Roughly 1% stayed inconclusive and do not appear here. No stated cut-off is given here; in the data, active means inhibition above about 80%; inconclusive means no clear call, values can overlap the other calls; inactive means below that. This is one part of a sample in which actives are shown more often than they occur.
Outcomes: label 1 (active), label 0 (inactive)

[[record]]
smiles_text = "O=C(Nc1ccc(Cl)cc1C(=O)NCc1ccco1)c1ccco1"
qualitative_label = "label 0"

[[record]]
smiles_text = "CCn1c(SCC(=O)c2ccc(OC)cc2)nnc1-c1ccc(Cl)cc1Cl"
qualitative_label = "label 0"

[[record]]
smiles_text = "Cc1ccc(OCC(=O)Nc2cccc(NC(=O)c3ccco3)c2)cc1C"
qualitative_label = "label 0"

[[record]]
smiles_text = "CSC1=N/C(=C\\C=C\\c2cccs2)C(=O)S1"
qualitative_label = "label 1"

[[record]]
smiles_text = "C[C@@H]1CN([C@H](C)CO)C(=O)c2cccc(NS(=O)(=O)c3ccc(Cl)cc3)c2O[C@@H]1CN(C)CC1CC1"
qualitative_label = "label 0"

[[record]]
smiles_text = "C[C@@H]1CN([C@@H](C)CO)C(=O)c2cc(NS(=O)(=O)c3cccs3)ccc2O[C@@H]1CN(C)S(=O)(=O)c1ccc(F)cc1"
qualitative_label = "label 0"

[[record]]
smiles_text = "COc1ccc(S(=O)(=O)Nc2ccc3c(c2)CC(=O)N([C@@H](C)CO)C[C@@H](C)[C@@H](CN(C)C(=O)Nc2c(C)noc2C)O3)cc1"
qualitative_label = "label 0"

[[record]]
smiles_text = "C[C@@H]1CN([C@H](C)CO)C(=O)Cc2cc(NC(=O)c3ccncc3)ccc2O[C@H]1CN(C)S(=O)(=O)c1cccs1"
qualitative_label = "label 0"

[[record]]
smiles_text = "CC(C)NC(=O)N(C)C[C@H]1Oc2c(NC(=O)C3CCCCC3)cccc2C(=O)N([C@@H](C)CO)C[C@H]1C"
qualitative_label = "label 0"


* * *

assay: NOMO-1 AML cell viability reduction, primary screen, STK33 inhibitor project, CellTiter-Glo luminescence (AID 2330); conditions: NOMO-1 AML viability, 72 h, stronger effect = higher value, concentration not given here
The campaign covered roughly 37,000 compounds. About 2,800 (7.6%) were called active. About 1% were inconclusive and are not listed. The list comes from a sample in which actives are over-represented; it also holds close analogues and randomly drawn compounds.
Listed compounds paired with reported inhibition
Readout Label: inhibition (%)

[[record]]
compound = "C[C@H]1CN([C@@H](C)CO)C(=O)c2cccc(NC(=O)Nc3ccc(C(F)(F)F)cc3)c2O[C@H]1CN(C)S(=O)(=O)c1ccccc1"
reading_unit = "%"
test_value = 54.4

[[record]]
compound = "C[C@H]1CN([C@@H](C)CO)C(=O)Cc2cc(NS(=O)(=O)c3cccs3)ccc2O[C@@H]1CN(C)Cc1ccc(Oc2ccccc2)cc1"
reading_unit = "%"
test_value = 78.4

[[record]]
compound = "CNC[C@@H]1Oc2ccc(NC(=O)Nc3ccc4c(c3)OCO4)cc2C(=O)N([C@H](C)CO)C[C@@H]1C"
reading_unit = "%"
test_value = 6.4

[[record]]
compound = "COc1cc(C(C)=O)ccc1OCC(O)Cn1nc(C)cc1C (stereo not drawn)"
reading_unit = "%"
test_value = 10.2

[[record]]
compound = "COc1ccc(NC(=O)Nc2ccc3c(c2)C(=O)N([C@@H](C)CO)C[C@H](C)[C@@H](CN(C)C(=O)NC2CCCCC2)O3)cc1"
reading_unit = "%"
test_value = -2.68

[[record]]
compound = "CC(C)NC(=O)N(C)C[C@H]1Oc2ccc(NS(C)(=O)=O)cc2CC(=O)N([C@@H](C)CO)C[C@@H]1C"
reading_unit = "%"
test_value = -17.4

[[record]]
compound = "CCc1cc(C(=O)OC)c(NC(=O)CC2Sc3ccc(C(F)(F)F)cc3NC2=O)s1 (stereo not drawn)"
reading_unit = "%"
test_value = 43.5

[[record]]
compound = "COc1ccc(NC(=O)Nc2cccc3c2O[C@H](CN(C)S(=O)(=O)c2cccs2)[C@H](C)CN([C@@H](C)CO)C3=O)cc1"
reading_unit = "%"
test_value = 34.9

